Experiment: CelltiterGlo viability cell assay
Format: cell-based
Details: human, HCC1143 breast cancer cells, HCC1143, 3 day, 0.03 uM; read-out: viability Replicate 2
Readout type: viability at 3 day, 0.03 µM (%)
The reply should contain only the number, in %.

Query: Which viability at 3 day, 0.03 µM value belongs to COc1cc(OC)cc(-c2noc(N3CCN(C)C4(CCN(c5ccnc(C)c5)CC4)C3)n2)c1 [MRK-740] ?
Reply: 94.1

----------
Assay: CelltiterGlo viability cell assay
Type: cell-based
Settings: human, CAL851 breast cancer cells, CAL851, 3 day, 9.5 uM; read-out: viability Replicate 3
Readout type: viability at 3 day, 9.5 µM (%)
# value in %; strip the unit string

Query: Requested field: viability at 3 day, 9.5 µM. Item: "COc1cc(OC)cc(-c2noc(N3CCN(C)C4(CCN(c5ccnc(C)c5)CC4)C3)n2)c1"
Reply: 77.4
